test system: BT-549 breast; test: NCI tumour cell line growth inhibition, 48 h
Recorded endpoint: GI50

Return value of GI50 for input C=C1C(=O)O[C@H]2[C@H]1CC/C(COC(=O)CCCCCCCC(=O)OC/C1=C/CC[C@@]3(C)O[C@H]3[C@H]3OC(=O)C(=C)[C@@H]3CC1)=C\CC[C@@]1(C)O[C@@H]21 , no commentary.
1.59 µM

Name the recorded GI50 of the item Cc1ccc(N=Nc2c(O)ccc3n[nH]nc23)cc1 in your answer.
21.2 µM

Answer with the recorded GI50 for the molecule listed here: CNCC(=O)NC(CO)C(=O)NC(CO)C(=O)NC1C(C(N)=O)OC(n2ccc(N)nc2=O)C(O)C1O (centres undefined)
7.25 µg/mL

Give me measured GI50, please, for this molecule: Cn1cc(C2=C(c3cc[nH]c3)C(=O)NC2=O)c2ccccc21
> 17.9 µM

* * *

system: K-562 leukemia; experiment: NCI tumour cell line growth inhibition, 48 h
Recorded endpoint: TGI

Provide TGI, recorded with K-562 leukemia, of CC(=O)NC1CC(C(C)(C)NC(C)=O)CC=C1C (stereo unspecified)
> 100 µM

Provide the reported TGI (system: K-562 leukemia) for C(=C\c1ccncc1)/c1ccncc1
> 100 µM

Specify TGI for COc1ccc(CCc2ccc3c(c2)OCO3)cc1 , system K-562 leukemia.
> 100 µM

State, for K-562 leukemia, measured TGI of the compound listed here: O=NN1CCN=C1c1ccc([N+](=O)[O-])cc1
> 100 µM

Give K-562 leukemia TGI for the following compound: Cc1cccc2c1Sc1ccccc1C2NC(=O)CN(C)C (stereo unspecified)
> 100 µM

# return TGI of CC1CC(=NC2CCCCC2)Nc2ccccc2N1Cc1ccccc1 (stereo unspecified) (system: K-562 leukemia)
> 36.1 µM

Jot down TGI (K-562 leukemia) of C=C1C(=O)O[C@@H]2CC(CO)=C([C@@H](C)CCCO)[C@@H](OC(=O)/C(C)=C\C)[C@H]12 .
31.2 µM

Recall the reported TGI of NNC(=O)CCc1ccc2ccc3ccccc3c2c1 when tested on K-562 leukemia.
> 100 µM

Lab note: K-562 leukemia assay, enter TGI for COc1cccc(/C=C2\SC(=S)N(/C=C3\C(=O)Oc4ccccc4C3=O)C2=O)c1O here
> 100 µM

Check K-562 leukemia data and give TGI for COc1cc(NCCC(=O)O)c2ncccc2c1 .
> 100 µM

Identify measured TGI obtained with K-562 leukemia for O=C1C=C(NCC(c2ccccc2)c2ccccc2)C(=O)c2ncccc21 .
4.1 µM

Under K-562 leukemia: report TGI of Cc1ccc(C(C)C)c(OCC(=O)N/N=C/c2c[nH]c3ccc(Br)cc23)c1 .
11.4 µM

Lab note: record TGI of CNCC(=O)NC(CO)C(=O)NC(CO)C(=O)NC1C(C(N)=O)OC(n2ccc(N)nc2=O)C(O)C1O (stereo unspecified) tested on K-562 leukemia.
> 50 µg/mL

Supply TGI measured with K-562 leukemia for CN(C)c1cccc(OC(=O)NCCCl)c1 .
> 100 µM

Enter measured TGI, system K-562 leukemia, for the compound shown: Cn1c2c(c3ccccc3c1=O)C(=O)c1ccccc1-2
> 100 µM

Please respond with reported TGI (system K-562 leukemia) for O=C1C(c2c(O)[nH]c3ccc(Cl)cc23)=Nc2ccccc21 .
> 100 µM

Look up and report TGI, with K-562 leukemia as system, for COc1c(B(O)O)cccc1-c1nc2ccc3[nH]ncc3c2c2c1CCCC2
> 100 µM

Enter TGI (test system K-562 leukemia) for COC(=O)C(=O)C(C(C)=O)C(=O)NCc1ccccc1 (stereo unspecified)
> 100 µM

State TGI on K-562 leukemia. Entry: Nc1n[nH]c2c(C(=O)Nc3ccc(Cl)cc3)c(N)n(N)c(=O)c12
> 100 µM

Give reported TGI for Nn1c(-c2cccc(Cl)c2)nc2ccccc2c1=O (K-562 leukemia)
> 100 µM

Look up K-562 leukemia data: TGI of Cc1cc(S(=O)(=O)NC2=NCCCN2)c(S)cc1Cl , then report it.
75.9 µM

* * *

I'd be grateful if you could share measured TGI for these entries.
test system: NCI-H460 lung; test: NCI tumour cell line growth inhibition, 48 h

Look up and state reported TGI for c1ccc2c(c1)SP1Sc3ccccc3P21 (stereo not drawn)
> 100 µM

Report measured TGI; entry is O=C(NCc1ccco1)C1CCN(S(=O)(=O)c2ccc(Cl)cc2)CC1
> 100 µM

For the compound Cc1cc(Cl)ccc1N=C1NC(=O)C(CC(=O)Nc2cccc(C)c2C)S1 (stereo not drawn) , give its reported TGI.
> 100 µM

* * *

system: OVCAR-5 ovarian; experiment: NCI tumour cell line growth inhibition, 48 h
Kindly state TGI for each of the entries shown.

Look up and state reported TGI for O=C1C(Cl)=C(Cl)C(=O)N1c1ccc(F)cc1
41 µM

Answer with reported TGI of O=C1C(Cl)=C(Cl)C(=O)N1c1cccc(C(F)(F)F)c1
> 100 µM

Answer with reported TGI of CN(C)CC1C(=O)O[C@H]2[C@H]1CC/C(COC(=O)NCc1ccc(Cn3c(=O)sn(CCCI)c3=O)cc1)=C\CC[C@@]1(C)O[C@@H]21 (some centres not stated)
5.04 µM

Tell me measured TGI for CC(=O)[CH-]C(=O)c1ccccc1.CC(=O)[CH-]C(=O)c1ccccc1.CC[C@H](/C=C/C(C)[C@H]1CCC2[C@@H]3CC=C4C[C@@H]([O-])CC[C@]4(C)C3CC[C@@]21C)C(C)C.CC[C@H](/C=C/C(C)[C@H]1CCC2[C@@H]3CC=C4C[C@@H]([O-])CC[C@]4(C)C3CC[C@@]21C)C(C)C.Cl.[Ti+4] (some centres not stated) please.
> 25 µM

Identify measured TGI associated with CC(=O)N1C(CCc2ccccc2)CC(C)(C=O)C1Cc1ccc(O[Si](C(C)C)(C(C)C)C(C)C)cc1 (configuration not stated)
28.8 µM

Give me measured TGI, please, for this molecule: Cc1ccc(-c2c3c(nn2-c2ccc(S(=O)(=O)NC(=O)NC4CCCCC4)cc2)-c2ccccc2C3)cc1
70.3 µM

Please look at this molecule and report its TGI: C[C@@]1(C(=O)O)CCC[C@]2(C)C1CC[C@]13C[C@@](O)(CO)[C@](O)(CC[C@]12O)C3 (some centres not stated)
> 100 µM

Identify TGI associated with the molecule C=C1C2CC3CCC2C(OC(=O)c2ccccc2C(=O)O)C13 (configuration not stated)
> 100 µM

Using the record for O=C(O/N=c1/ccc(=O)/c(=N\OC(=O)c2ccccc2)c1=O)c1ccccc1 , state its measured TGI.
> 100 µM

Quote TGI reported for NNC(=O)c1cc([N+](=O)[O-])ccc1NC(=O)C12CC3CC(CC(C3)C1)C2 please.
> 100 µM

Using known records, supply TGI for Cc1cc2c(nn1)CCc1c-2no[n+]1[O-]
> 100 µM

Return TGI (reported value) for this molecule: CCN(CC)/[N+]([O-])=N/OCOC
> 100 µM

* * *

tested on: HS 578T breast; assay: NCI tumour cell line growth inhibition, 48 h
Recorded endpoint: GI50

Give the value of GI50 reported for the following: COC(=O)c1c2c(c(C)[n+]([O-])c1C)C(=O)C(NCc1ccc(F)cc1)=CC2=O
2470 nM

State its GI50 for this compound: C#CCOc1cccc(Nc2ncnc3cc(NC(=O)C=C)ccc23)c1
5870 nM

For the compound CC1=NN(c2cccc(Cl)c2)C(=O)/C1=C\C=C\c1ccccc1 , give its reported GI50.
1650 nM

Assign GI50 to the following record: O=C1C(Cl)=C(Nc2cc(Cl)ccc2O)C(=O)N1Cc1ccccc1
21700 nM

State its GI50: Cc1nn(Cc2ccccc2)cc1C(=O)Nc1sc2c(c1C(N)=O)CCC(=O)C2
2510 nM

* * *

Give measured TGI for each item. Keep answers brief.
test system: DMS 114 small cell lung; experiment: NCI tumour cell line growth inhibition, 48 h

Consider the compound Cc1cc(N(CCC#N)CCC#N)ccc1/C=C(\NC(=O)/C=C/c1ccccc1)C(=O)Nc1ccc(Cl)cc1 . State its measured TGI.
> 100 µM

// fetch TGI given entry CSCC(CO)NC(=O)/C=C/c1c(C)[nH]c(=O)[nH]c1=O (stereo unspecified)
> 801 µM

For O=C1C(Cl)=C(Cl)C(=O)N1c1ccc(F)cc1 , write its TGI.
39.4 µM

Given the compound O=C(Nc1ccc([N+](=O)[O-])cc1[N+](=O)[O-])C(=O)C(C(=O)c1ccc(Cl)c(Cl)c1)C1OC(=O)c2ccccc21 (stereo unspecified) , write its reported TGI.
59.5 µM

Quickly give me recorded TGI for C[C@]12CC(C=O)C(=O)C(O)=C1CC[C@@H]1C2CC[C@@]2(C)C1CC[C@]2(C)O (stereo partly specified)
33.4 µM

State, in one line, measured TGI of CCC[CH2][Sn]([CH2]CCC)([O]C(=O)c1cc(F)ccc1F)[O]C(=O)c1cc(F)ccc1F
1.41 µM

Using the record for N#CC(C(=N/O)/C(=N\O)C(C#N)c1ccccc1)c1ccccc1 (stereo unspecified) , state its measured TGI.
> 100 µM

Determine its reported TGI: O=C1NC2C3CC(OCc4ccccc4)(OCc4ccccc4)C2OC3O1 (stereo unspecified)
> 50 µM

For C=CC(=O)Nc1ccccc1CC(c1c[nH]c2ccccc12)c1c[nH]c2ccccc12 , write its TGI.
30.1 µM

Quick one: give measured TGI for COc1cc(C2c3cc4c(cc3[C@@H](Nc3ccc([N+](=O)[O-])cc3)C3COC(=O)[C@H]23)OCO4)cc(OC)c1O (stereo partly specified)
6.26 µM

Please give the documented TGI of COc1cc([C@@H]2OC(=O)C3C2C(=O)O[C@H]3c2ccc(O)c(OC)c2)ccc1O (stereo partly specified)
> 100 µM
